Measured activation values are reported for all entries that follow.
Assay: compounds raising alpha-dystroglycan glycosylation – uHTS, Pro5-aDG cells, AlphaScreen, primary screen (AID 624168);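 also: Pro5 are CHO cells carrying HIG-tagged alpha-DG that lacks glycosylation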
Experimental parameters: alpha-DG glycosylation AlphaScreen (IIH6), at 10 µM, hits give high values, 0% Pro5, 100% B10-LARGE cell signal
The whole screen tested about 360,000 compounds, of which about 800 (0.22%) were called active. Only a selection was taken, and actives are over-represented in it overall.

>  <Molecule>
CCN(CC)CC1(O)CCN(C(=O)c2ccc(Cl)c(Cl)c2)CC1

>  <activation>
-0.1% (inactive)

$$$$
>  <Molecule>
COc1ccc(-c2oc(/N=C/N3CCCC3)c(C#N)c2-c2ccc(OC)cc2)cc1

>  <activation>
0.1% (inactive)

$$$$
>  <Molecule>
Cc1nn(-c2ccccc2)c2c1C(c1cccc([N+](=O)[O-])c1)N(c1ccccc1)C(=O)N2 (stereo not given)

>  <activation>
-0.2% (inactive)

$$$$
>  <Molecule>
O=C(Cn1nnc(N2CCCCC2)n1)c1ccc(Cl)c(Cl)c1

>  <activation>
-0.1% (inactive)

$$$$
>  <Molecule>
CCOc1ccc(OCC(=O)Nc2c3c(nn2C(C)(C)C)CS(=O)(=O)C3)cc1

>  <activation>
7.3% (active)

$$$$
